Tested on: Mycobacterium tuberculosis
assay.info: Antitubercular activity against Mycobacterium tuberculosis H37Rv clinical isolate harboring katG S315T mutant by BACTEC 960 assay
Assay type: functional
reported.metric: MIC (µM)
Lab book: enter the figure in µM, no units written.

// MIC lookup, compound = CCCCCCCCCC(=O)NNC(=O)c1ccncc1 , result: 6.9

// MIC lookup, compound = O=C(N/N=C/c1cccc(CO)c1)c1ccncc1 , result: 39.2

// MIC lookup, compound = NNC(=O)c1ccnc(NN)c1 , result: 47.9

// MIC lookup, compound = O=C(N/N=C/c1ccc(CO)cc1)c1ccncc1 , result: 39.2

// MIC lookup, compound = O=C(NN=C1CCCC1)c1ccncc1 , result: 39.4

// MIC lookup, compound = COC(=O)c1ccc(/C=N/NC(=O)c2ccncc2)cc1 , result: 21.2

// MIC lookup, compound = O=C(N/N=C/c1ccc(Oc2ccccc2)cc1)c1ccncc1 , result: 18.9

// MIC lookup, compound = O=C(NN=C1CCC(c2ccccc2)CC1)c1ccncc1 (centres undefined) , result: 34.1

// MIC lookup, compound = NNC(=O)c1ccncc1 , result: 43.8

###

Test system: Mycobacterium tuberculosis
assay.info: Antitubercular activity against katG-deficient isoniazid-resistant Mycobacterium tuberculosis H37Rv ATCC 27294 by BACTEC 960 assay
Type: functional
Could you please report measured MIC for the items listed next?

Per the reported Mycobacterium tuberculosis data, O=C(NN=C1CCCC1)c1ccncc1 has MIC of > 49.2 µM

Per the reported Mycobacterium tuberculosis data, CC(=O)NNC(=O)c1ccncc1 has MIC of > 55.8 µM

Per the reported Mycobacterium tuberculosis data, O=C(N/N=C/c1ccc(CO)cc1)c1ccncc1 has MIC of > 39.2 µM

Per the reported Mycobacterium tuberculosis data, O=C(N/N=C/c1cccc(CO)c1)c1ccncc1 has MIC of > 39.2 µM

Per the reported Mycobacterium tuberculosis data, O=Cc1ccc(/C=N/NC(=O)c2ccncc2)cc1 has MIC of > 39.5 µM

Per the reported Mycobacterium tuberculosis data, NNC(=O)c1ccncc1 [ISONIAZID] has MIC of > 72.9 µM

Per the reported Mycobacterium tuberculosis data, O=Cc1cccc(/C=N/NC(=O)c2ccncc2)c1 has MIC of > 39.5 µM

Per the reported Mycobacterium tuberculosis data, O=C(NNC1CCC(c2ccccc2)CC1)c1ccncc1 (stereo not given) has MIC of > 33.9 µM

Per the reported Mycobacterium tuberculosis data, O=C(NN=C1CCC(c2ccccc2)CC1)c1ccncc1 (stereo not given) has MIC of > 34.1 µM

Per the reported Mycobacterium tuberculosis data, CCCCCCCCCC(=O)NNC(=O)c1ccncc1 has MIC of > 34.3 µM

###

Test system: Mycobacterium tuberculosis
assay.info: Antitubercular activity against Mycobacterium tuberculosis H37Rv clinical isolate harboring katG S315T mutant by BACTEC 960 assay
Assay type: functional
Could you please report measured MIC for the items listed next?

// MIC lookup, compound = CC(=O)NNC(=O)c1ccncc1 , result: >55.8 µM

// MIC lookup, compound = O=Cc1ccc(/C=N/NC(=O)c2ccncc2)cc1 , result: >39.5 µM

// MIC lookup, compound = O=Cc1cccc(/C=N/NC(=O)c2ccncc2)c1 , result: >39.5 µM

// MIC lookup, compound = CCCCCC(C)C(=O)NNC(=O)c1ccncc1 (stereo not given) , result: >38 µM

// MIC lookup, compound = O=C(NNC1CCC(c2ccccc2)CC1)c1ccncc1 (stereo not given) , result: >33.9 µM
